# Tested on: β3 human transgenic mice
# test method notes: Thermogenesis (Oxymax indirect calorimeter) in β3 transgenic (Tg) mice
# Assay type: in vivo, mice (FVB)
# run conditions: Mus musculus, ip, mouse type homo; IP 10 mg/kg; percent increase in thermogenesis over baseline
metric name: change in vivo at 10 mg/kg (%)
Report as a plain number; the unit % is understood.

These solved cases illustrate the format of a correct answer.
1) CCCCCCCCNC(=O)Nc1ccc(S(=O)(=O)N2CCC(CNC[C@H](O)COc3ccc(O)cc3)CC2)cc1: 24
2) CS(=O)(=O)Nc1cc(OC[C@@H](O)CNCC2CCN(S(=O)(=O)c3ccc(NC(=O)NCc4cc(F)ccc4F)cc3)CC2)ccc1O: 10
3) O=C(Nc1ccc(S(=O)(=O)N2CCC(CNC[C@H](O)COc3ccc(O)cc3)CC2)cc1)Nc1ccccn1: 4
4) O=C(NCCCc1cccs1)Nc1ccc(S(=O)(=O)N2CCC(CNC[C@H](O)COc3ccc(O)cc3)CC2)cc1: 5
5) O=C(NCc1cc(F)ccc1F)Nc1ccc(S(=O)(=O)N2CCC(CNC[C@H](O)COc3ccc(O)cc3)CC2)cc1: 4
6) CCCCCCNC(=O)Nc1ccc(S(=O)(=O)N2CCC(CNC[C@H](O)COc3ccc(O)cc3)CC2)cc1: 5
7) O=C(Nc1ccccc1)Nc1ccc(S(=O)(=O)N2CCC(CNC[C@H](O)COc3ccc(O)cc3)CC2)cc1: 3

Next, consider the following compound.
Entry CCCCCCCCNC(=O)Nc1ccc(S(=O)(=O)N2CCC(CNC[C@H](O)COc3ccc(O)c4c3CCC(=O)N4)CC2)cc1 has what change in vivo at 10 mg/kg?
18

----------
# target system: human β3 receptors (Homo sapiens, UniProt P13945)
# Construct: Full length β3 AR clones (402 amino acids) containing the last 6 amino acids of hβ3—AR
# Sequence (P13945 whole entry): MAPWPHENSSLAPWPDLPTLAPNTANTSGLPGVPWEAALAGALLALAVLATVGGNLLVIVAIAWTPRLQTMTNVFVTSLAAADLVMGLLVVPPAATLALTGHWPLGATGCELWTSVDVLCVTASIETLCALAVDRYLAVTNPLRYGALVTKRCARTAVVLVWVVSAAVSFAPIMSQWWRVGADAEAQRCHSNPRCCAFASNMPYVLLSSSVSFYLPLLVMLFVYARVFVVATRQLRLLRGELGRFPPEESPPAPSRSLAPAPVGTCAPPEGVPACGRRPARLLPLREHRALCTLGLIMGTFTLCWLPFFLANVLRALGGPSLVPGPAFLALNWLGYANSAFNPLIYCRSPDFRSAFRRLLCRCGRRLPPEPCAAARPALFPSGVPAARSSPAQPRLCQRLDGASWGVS
# test method notes: cAMP response (SPA) in CHO cells expressing cloned human β3 adrenergic receptor
# run conditions: CHO cells expressing human β3 receptor; cAMP; 30 min incubation; 10^−9 M to 10^−5 M
Collected pEC50 values appear next to each entry.
# pEC50 is unitless: minus log10 of the molar concentration; print number only

These solved cases illustrate the format of a correct answer.
1. O=c1[nH]c2cccc(OC[C@@H](O)CNCC3CCN(S(=O)(=O)c4ccc5ccccc5c4)CC3)c2[nH]1: 6.17
2. CCCCCCCCN1CCC(CNC[C@H](O)COc2cccc3[nH]c4ccccc4c23)CC1: 5.99
3. COc1ccc(S(=O)(=O)N2CCC(CNC[C@H](O)COc3cccc4c3CC(=O)N4)CC2)cc1OC: 6.38

Lab note: need pEC50 for CCCCCCC(=O)Nc1ccc(S(=O)(=O)N2CCC(CNC[C@H](O)COc3ccc(O)cc3)CC2)cc1 on human β3 receptors (Homo sapiens, UniProt P13945), anyone have it?
6.57

Lab note: need pEC50 for CCCCCCCCNC(=O)Nc1ccc(S(=O)(=O)N2CCC(CNC[C@H](O)c3ccc(O)c(NS(C)(=O)=O)c3)CC2)cc1 on human β3 receptors (Homo sapiens, UniProt P13945), anyone have it?
8.22

Lab note: need pEC50 for COc1ccc(S(=O)(=O)N2CCC(CNC[C@H](O)COc3ccc(O)cc3)CC2)cc1 on human β3 receptors (Homo sapiens, UniProt P13945), anyone have it?
6.42

Lab note: need pEC50 for CC(C)N(Cc1cc(F)ccc1F)C(=O)Nc1ccc(S(=O)(=O)N2CCC(CNC[C@H](O)c3ccc(O)c(NS(C)(=O)=O)c3)CC2)cc1 on human β3 receptors (Homo sapiens, UniProt P13945), anyone have it?
8.52

Lab note: need pEC50 for Cc1cc2cccc(OC[C@@H](O)CNCC3CCN(S(=O)(=O)c4ccc(NC(=O)Nc5ccccc5)cc4)CC3)c2[nH]1 on human β3 receptors (Homo sapiens, UniProt P13945), anyone have it?
7.01

src = patent US6506901B2
